IC50 values for the molecules below.
# System Under Test: testosterone (T) production in NCI-H295R cells (Homo sapiens)
# Construct: testosterone measured by LC-MS/MS as downstream steroid
# Assay Procedure: H295R Steroid Biosynthesis Inhibition Assay - inhibition of testosterone (T) production in NCI-H295R cells
# Protocol Conditions: 48 h, LC-MS/MS, read-out: Inh. of T IC50

Please review the following examples before continuing.
- Molecule: "CS(=O)(=O)Nc1ccc(-c2cc3oc(CN4Cc5ccccc5C4)cc(=O)c3o2)cc1"
  Readout Value: "≤ 40 nM"
- Molecule: "O=c1cc(CN2Cc3ccccc3C2)oc2cc([C@@H]3CCC[C@@H](O)CC3)oc12 (racemic)"
  Readout Value: "≤ 40 nM"
- Molecule: "CS(=O)(=O)N1CCC(c2ccc3nc(CN4Cc5ccccc5C4)ccc3n2)CC1"
  Readout Value: "≤ 40 nM"
- Molecule: "O=c1cc(CN2Cc3ccccc3C2)oc2cc(C3C4CC(O)CC43)oc12 (stereo not shown)"
  Readout Value: "≤ 40 nM"
- Molecule: "Cn1c(C2CCN(S(C)(=O)=O)CC2)nc2ccc(CN3Cc4ccccc4C3)cc21"
  Readout Value: "≥ 101 nM"
- Molecule: "N#C[C@H]1CC[C@H](c2cc3oc(CN4Cc5ccccc5C4)cc(=O)c3o2)CC1"
  Readout Value: "41 to 100 nM"

With those in mind, consider the next molecule.
For O[C@H]1CC[C@H](c2nc3cc(CN4Cc5ccccc5C4)ccc3o2)CC1 , write its IC50.
≤ 40 nM
